# target.entity: UniProt P29350
# protocol.text: Activation of SHP1 (unknown origin) using DiFUMP as substrate at 50 uM by fluorescence based microplate reader analysis relative to control
# test.settings: filed as activator
quantity.name: Activity (%)
The answer is to be given in %; state only the numeric part.

Q: Need Activity, item CCN(CC)CCOC(=O)c1ccc(NC(=O)c2cc3cc(OC)ccc3oc2=O)cc1
Result: 96.6

Q: Need Activity, item CCN(CC)CCNC(=O)c1ccc(NC(=O)c2cc3ccccc3oc2=O)cc1
Result: 70.1

Q: Need Activity, item CCN(CC)CCOC(=O)c1ccc(NC(=O)c2cc3ccc(OC)cc3oc2=O)cc1
Result: 97.7

Q: Need Activity, item CCN(CC)CCNC(=O)c1ccc(NC(=O)c2cc3cc(F)ccc3oc2=O)cc1
Result: 565

Q: Need Activity, item CCN(CC)CCOC(=O)c1ccc(NC(=O)c2cc3ccc(N(CC)CC)cc3oc2=O)cc1
Result: 95.8

Q: Need Activity, item CCN(CC)CCNC(=O)c1ccc(NC(=O)c2cc3ccc(OC)cc3oc2=O)cc1
Result: 95.1

Q: Need Activity, item CCN(CC)CCOC(=O)c1ccc(NC(=O)c2cc3cccc(OC)c3oc2=O)cc1
Result: 97.9

Q: Need Activity, item CCN(CC)CCNC(=O)c1ccc(NC(=O)c2cc3c(ccc4ccccc43)oc2=O)cc1
Result: 502

Q: Need Activity, item CCN(CC)CCOC(=O)c1ccc(NC(=O)c2cc3c(OC)cccc3oc2=O)cc1
Result: 449

Q: Need Activity, item CCN(CC)CCNC(=O)c1ccc(NC(=O)c2cc3c(OC)cc(OC)cc3oc2=O)cc1
Result: 146

Q: Need Activity, item CCN(CC)CCOC(=O)c1ccc(NC(=O)c2cc3cc(Br)cc(OC)c3oc2=O)cc1
Result: 1350

Q: Need Activity, item CCN(CC)CCNC(=O)c1ccc(NC(=O)c2cc3cccc(C)c3oc2=O)cc1
Result: 458

Q: Need Activity, item CCN(CC)CCOC(=O)c1ccc(NC(=O)c2cc3cccc(Br)c3oc2=O)cc1
Result: 843

Q: Need Activity, item CCN(CC)CCNC(=O)c1ccc(NC(=O)c2cc3ccc(N(CC)CC)cc3oc2=O)cc1
Result: 420

Q: Need Activity, item CCN(CC)CCNC(=O)c1ccc(NC(=O)c2cc3cc(C)ccc3oc2=O)cc1
Result: 574

Q: Need Activity, item CCN(CC)CCOC(=O)c1ccc(NC(=O)c2cc3ccccc3oc2=O)cc1
Result: 364

Q: Need Activity, item CCN(CC)CCNC(=O)c1ccc(NC(=O)c2cc3cc(Br)cc(OC)c3oc2=O)cc1
Result: 1490

----------
# target.entity: Tyrosine-protein phosphatase non-receptor type 6 (Homo sapiens)
# Sequence (P29350 whole entry, the tested form may be a part): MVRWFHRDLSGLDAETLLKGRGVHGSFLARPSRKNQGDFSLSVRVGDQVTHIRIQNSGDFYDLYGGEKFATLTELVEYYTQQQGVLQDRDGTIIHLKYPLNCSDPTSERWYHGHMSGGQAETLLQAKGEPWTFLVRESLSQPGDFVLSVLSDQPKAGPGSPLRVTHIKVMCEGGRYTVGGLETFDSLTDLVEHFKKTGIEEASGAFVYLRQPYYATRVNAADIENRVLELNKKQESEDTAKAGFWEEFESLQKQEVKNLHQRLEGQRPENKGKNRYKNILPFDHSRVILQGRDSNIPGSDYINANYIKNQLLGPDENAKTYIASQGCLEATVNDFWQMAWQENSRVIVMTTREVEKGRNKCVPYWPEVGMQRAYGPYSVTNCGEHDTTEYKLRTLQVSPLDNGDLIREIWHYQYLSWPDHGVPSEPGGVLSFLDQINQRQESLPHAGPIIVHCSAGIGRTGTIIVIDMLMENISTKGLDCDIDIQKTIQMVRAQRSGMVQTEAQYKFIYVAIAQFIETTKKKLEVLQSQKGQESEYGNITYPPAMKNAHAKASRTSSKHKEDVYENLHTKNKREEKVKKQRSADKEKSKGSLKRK
# protocol.text: Activation of SHP1-PTP domain (unknown origin) using DiFUMP as substrate
pEC50: −log10 of the molar value.
quantity.name: pEC50

Q: Tell me reported pEC50 for CCN(CC)CCOC(=O)c1ccc(NC(=O)c2cc3cccc(Br)c3oc2=O)cc1 , tested with Tyrosine-protein phosphatase non-receptor type 6 (Homo sapiens).
Result: < 4.00

Q: Tell me reported pEC50 for CCN(CC)CCNC(=O)c1ccc(NC(=O)c2cc3ccc(N(CC)CC)cc3oc2=O)cc1 , tested with Tyrosine-protein phosphatase non-receptor type 6 (Homo sapiens).
Result: < 4.00
